# testedOn: human ALK5 (Homo sapiens (Human))
# Sequence (P36897 80-503 limits assumed): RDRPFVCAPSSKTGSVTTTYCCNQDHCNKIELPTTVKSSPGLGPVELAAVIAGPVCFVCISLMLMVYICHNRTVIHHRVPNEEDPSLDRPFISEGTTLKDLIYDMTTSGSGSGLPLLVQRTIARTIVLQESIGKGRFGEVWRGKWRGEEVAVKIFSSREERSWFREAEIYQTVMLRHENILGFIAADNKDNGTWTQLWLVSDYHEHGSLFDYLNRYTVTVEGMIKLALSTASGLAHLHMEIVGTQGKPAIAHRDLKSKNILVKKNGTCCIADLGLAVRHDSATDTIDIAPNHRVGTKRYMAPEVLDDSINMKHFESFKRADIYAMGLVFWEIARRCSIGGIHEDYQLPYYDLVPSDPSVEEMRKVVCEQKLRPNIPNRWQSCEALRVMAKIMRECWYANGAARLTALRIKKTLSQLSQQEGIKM
# protocolDetails: ADP-GLO Kinases assay, inhibition of ALK5 kinase activity
# Format: biochemical
# testSettings: Table 12; compounds classified in term of potency; ATP at Km, 25° C.; read-out: ALK5 IC50
Field: IC50. Provide a value for each of the compounds that follow.

response.value for Fc1ccc(Cl)cc1-c1cc(-c2cncc(OC3CCOC3)c2)c2c(n1)NCCO2 (stereo not drawn) (field: IC50) = 1 to 5 nM

IC50 in this record for CN(C)CCCC(=O)Nc1cncc(-c2cc(-c3cc(Cl)ccc3F)nc3c2OCCN3)c1 : ≤ 1 nM

Entry O=C(NCCN1CCCC1)c1cncc(-c2cc(-c3cc(Cl)ccc3F)nc3c2OCCN3)c1 ; IC50 = 5 to 10 nM

The compound identified as CNCCC(=O)Nc1cncc(-c2cc(-c3cc(Cl)ccc3F)nc3c2OCCN3)c1 registered its IC50 at ≤ 1 nM

According to the records, this compound CN(CCC(=O)Nc1cncc(-c2cc(-c3cc(Cl)ccc3F)nc3c2OCCN3)c1)C1COC1 displays IC50 of 1 to 5 nM

Note to self: IC50 recorded for Fc1ccc(Cl)cc1-c1cc(-c2cncc3ccccc23)c2c(n1)NCCO2 was 1 to 5 nM
